Target: T1, CaBdf1 BD2 (GST-tagged, wild-type) (Candida albicans (strain SC5314 / ATCC …, UniProt Q5A4W8))
T1 chain: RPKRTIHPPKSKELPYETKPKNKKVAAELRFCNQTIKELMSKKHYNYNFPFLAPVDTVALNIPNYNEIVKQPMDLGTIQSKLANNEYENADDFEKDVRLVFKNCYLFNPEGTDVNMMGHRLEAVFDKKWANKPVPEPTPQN
Assay: histone peptide array (Active Motif MODified), 1 uM GST-tagged bromodomain, anti-GST detection, normalized mean intensity
Square brackets hold non-standard residues; d marks the D form. Ends that are not written are not given here. pT = C[C@@H](OP(=O)(O)O)[C@H](N)C(=O)O; Me2a = not defined here
The entries below come with measured binding score values attached.

| binder | binding score |
| --- | --- |
| SGRGKQGGK(Ac)ARAKAKSRSS [H2a 1-19] | 0.00814 |
| ARTKQTARKSTGGKAPRKQ (A Rme2s T Kme2 Q T A Rme2s Kme1 S T G G K A P R K Q) | 0.00407 |
| PRKQLATKAAR(Me2s)K(Ac)SAPATGG [H3 16-35] | 0.00814 |
| AR(Me2a)TK(Me3)QTARK(Me2)STGGKAPRKQ (reading uncertain) | 0.00296 |
| AR[pT]KQTARKSTGGKAPRKQ | 0.00259 |
| SGRGKGGKGLGKGGAKRHR (S G Rme2s G Kac G G Kac G L G K G G A K R H R) [H4 1-19] | 0.0322 |
